# Assayed target: T1, TNFR2-His (Sino Biological, 10417-H08H, NP_001057.1 Met1-Asp257, with multi-histidine tag expressed on … (human, UniProt P20333 23-257))
# T1 construct: range 1-257; Bought protein; also called recombinant human TNFR2 protein; TNFR2-His antigen; not shown: C-terminal multi-histidine tag
# T1 sequence (looked up): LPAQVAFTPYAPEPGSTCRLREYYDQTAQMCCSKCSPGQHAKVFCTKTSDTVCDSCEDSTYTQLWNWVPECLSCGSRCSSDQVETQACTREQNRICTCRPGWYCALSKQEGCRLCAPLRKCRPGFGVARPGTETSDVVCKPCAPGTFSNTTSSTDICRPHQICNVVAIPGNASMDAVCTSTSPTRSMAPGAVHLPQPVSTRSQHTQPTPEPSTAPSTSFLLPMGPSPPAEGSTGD
# Measurement notes: BLI, antibody captured on AHC probe, TNFR2-His in solution
Recorded koff by entry
Unit s⁻¹ implied. Number only.

See these solved cases before continuing.
11G2huVH4 + huVL1(P07265) (antibody, V domains shown, Humanized 11G2) VH: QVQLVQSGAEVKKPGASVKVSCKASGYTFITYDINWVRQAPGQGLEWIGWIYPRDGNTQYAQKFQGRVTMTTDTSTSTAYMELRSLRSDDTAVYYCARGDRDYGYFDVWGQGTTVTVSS VL: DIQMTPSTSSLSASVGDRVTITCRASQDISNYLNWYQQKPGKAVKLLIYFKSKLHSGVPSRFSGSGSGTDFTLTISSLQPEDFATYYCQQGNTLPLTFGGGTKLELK	0.00255
11G2huVH2 + huVL3(P07272) (antibody, V domains shown, Humanized 11G2) VH: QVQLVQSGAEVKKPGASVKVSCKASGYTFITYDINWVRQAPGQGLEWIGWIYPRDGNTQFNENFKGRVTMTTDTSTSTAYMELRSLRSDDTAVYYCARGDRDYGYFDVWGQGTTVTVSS VL: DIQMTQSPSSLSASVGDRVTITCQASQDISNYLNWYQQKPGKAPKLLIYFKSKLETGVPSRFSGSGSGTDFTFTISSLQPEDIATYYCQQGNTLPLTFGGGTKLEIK	0.00293

In the following, a different binder is considered.
Dear colleague, I am looking for the recorded koff of the following binder: 11G2huVH2 + huVL2(P07267) (antibody, V domains shown, Humanized 11G2) VH: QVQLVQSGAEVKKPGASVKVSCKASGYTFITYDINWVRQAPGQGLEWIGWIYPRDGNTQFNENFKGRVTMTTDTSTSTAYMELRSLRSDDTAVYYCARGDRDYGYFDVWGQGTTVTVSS VL: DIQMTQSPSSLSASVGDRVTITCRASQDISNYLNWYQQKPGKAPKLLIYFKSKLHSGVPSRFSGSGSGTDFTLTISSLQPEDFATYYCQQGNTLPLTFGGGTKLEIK 0.00205

Values from patent US20240392024A1
